# assay: yeast display, Sf9 membrane polyspecificity reagent, FACS + sequencing; frameworks hold sequencing errors
readout_label: polyreactivity (PSR sort gate)

biopolymer_sequence | polyreactivity (PSR sort gate)
QVQLVESGGGLVQAGGTLRLSCAATGRILHIYAMGWYRQAPGKERELVAVISTGGGDTYYADSVKGRFTISRDNANNTVYLQMNSRKPEDTAVYYCAADGYWAGYGYDYWGQGTQVTVSS | high polyreactivity
QVQLVESGGGLVQAGGSLRLSCAASGSTFKRYAMGWYRQAPGKERELVASISQRGGTTYYADSVKGRFTISRDNAKNTVYLQKNSLKPEDTAVYYCAKGFGWTRTIYDYWGQGTQVTVSS | high polyreactivity
QVQLVESGGGLVQAGGSLRLSCAASGLTFERNAMGWYRQAPGKERELVAAISSGGSTYYADSVKGRFTISRDNAKNTVYLQMNSLKPEDTAVYYCAVYDWNSYFYRSWWSGFYYWGQGTQVTVSS | low polyreactivity
QVQLVESGGGLVQAGGSLRLSCAASGRIFVGYPMGWYRQAPGKERELVAAITSGGSTYYADSVKGRFTISRDNAKNTVSFQMNSLKPEDTAVYYCNAAYQFDSYHLGGYRYEYWGQGTQVTVSS | low polyreactivity
QVQLVESGGGLVQAGGSLRLSCAASGRICGSYAMGWYRQAPGKERELVADISWRGTSTYYADSVKGRFTISRDIAKNTVYLQMNSLKPEDTAVYYCAARGLWPYDYWGQGTQVTVSS | low polyreactivity

Data request, read-out polyreactivity (PSR sort gate), for "QVQLVESGGGLVQPGGSLRLSCAASGFIFPSYDMGWYIQAPGKERELVAAITSDVNSYYADSVKGRFTISRDNAKNTVYLQMTSLKPEDTAFYSCNADADDYRDYQDYDYWGQGTQVTVSS"
low polyreactivity

Entry to check: "QVQLVESGGGLLQAGGSLRLSSAASGLTFAAYAMGWYRQAPGKEREFVAAITSSGGSTYYADSVKGRFTISRDNAKNSVYLQMNSLKPEDTAVYYCAAYYYDHYYWGQGTQVTVSS"
high polyreactivity

Entry to check: "QVQLVESGGGLFQAGGSLRLSCAASGSTFRHYDMAWYRQAPGKERELVAVISWGGTSTYYADSVKGRFTISRDNAKNTVYLQMHSLKPEDTGVYYCNKAYFPIFKGYEMYYWGQGTQVTVST"
low polyreactivity

Entry to check: "QVQLVESGGGLVQAGGSLRLSCAASGSIFYLYAMGWYRQAPGKERELVADITITGGSTYYADSVKGRFTISRDNAKNTVYLQMNSLKPEDTAVYYCAADEFWFTYRYDYWGQGTQVTVSS"
high polyreactivity

Entry to check: "QVQLVESGGGLVQAGGSLRLSCAPSGRTFNDYAMGWYRQAPGKESELVAAIDSDGDTNYADSVKGRFTISRDNAKNTVYLQMNSLKPEDTAVYYCNAVRLVVQEWYYYFTFDYWGQGTQVTVSS"
low polyreactivity

Entry to check: "QVQLVESGGGLVQAGGSLRLTCAASGRTFFYNAMGWYRPAPGKERELVAAISWSGGRTYYADSVKGRFTISRDNAKNTVYLQMNSLKPEDTAVYYCASTGFYSSHYHLDYWGQGTQLTVSS"
high polyreactivity

* * *

# assay: yeast display, Sf9 membrane polyspecificity reagent, FACS + sequencing; frameworks hold sequencing errors
readout_label: polyreactivity (PSR sort gate)

Worked set:
biopolymer_sequence | polyreactivity (PSR sort gate)
QVQLVESGGGLVQAGGSLRLSSAASGRTFHANAMGWYRQAPGKERELVARINWSGTSTYYADSVKGRFTISRDNAKNTVYLQMNSLKPEDTAVYYCAAGWIRLYSSLYDYWGQGTQVTVSS | high polyreactivity
QVQLVESGGGLVQAGGSLRLSCAASGRTFGSYAMGWYRQAPGKERELVAAISRSGTNTYYADSVKGRFTISRDNAKNTVYLQMNSLKPEDTAVYYCATDFYFSSVLVWFSYGYWGQGTQVTVSS | low polyreactivity
QVQRVESAGGLVQAGGSLRLSCAASGRTFSGNARGWYRPAPGKERELVAGISTTGGSTYYADSVKGRFTISRDNAKNTVYLEMNSLKPADTAVYYCAAYSASNGGYDYWGQGTQVTVSS | high polyreactivity
QVQLVESGGGLVQAGGSLRLSCAASGSTFYYYAMGCYRQAPGKERELVAAINSSGGNTYYADSVKGRFTISRDNAKNTVYLQMNCLKPEDTAVYYCATEYYWLQDYDYWGQGTQVTVSS | low polyreactivity
QDQLVESGGGLVQAGGSLRLSCAASGFTFYPYTRGWYRQAPGKERELVAAISKSGGSTYYADSVKGRFTISRDNAKNTVYLQMNSLKPEDSAVYYCAAQRYSYYTPDDDYWGQGTQVTVSS | high polyreactivity

Data request, read-out polyreactivity (PSR sort gate), for "QVQHVESGGGIVQAGGSLRLICAASGFPYARYAMGWNRQAPGNERELVAAITSAGSTSYADSVKGRFTISRYNAKNTDYFHMNSLKPEDTAVYYCAAVQYNQAYHYWGQGTQVTVSS"
high polyreactivity

The measured values listed here are drawn from the nanobody polyreactivity screen of Harvey et al. (2022).
